system: hTAS1R2-VFT (Homo sapiens, UniProt Q8TE23)
Construct: followed by hTAS1R2-VFT (Ala22-Ser493) and another His6-tag at the C-terminus; His6 (thrombin-cleavable) (N); made in house
test-description: Intrinsic tryptophan fluorescence ligand binding, hTAS1R2-VFT
settings: Table 1; intrinsic fluorescence, 0.5 µM protein, 20 °C, pH 8; read-out: hTAS1R2-VFT (Kd)
pKd: −log10 of the molar value. Residues, ends and D or L forms follow the SMILES beside them.
pKd vs 6: at or above is True, below is False.

{"columns": ["molecule", "system", "label-class"],
 "data": [
  ["C[C@@H](NC(=O)[C@@H](N)CC(=O)O)C(=O)NC1C(C)(C)SC1(C)C", "hTAS1R2-VFT (Homo sapiens, UniProt Q8TE23)", "True"],
  ["COC(=O)[C@H](Cc1ccccc1)NC(=O)[C@@H](N)CC(=O)O [Aspartame] (H-Asp-Phe-OMe)", "hTAS1R2-VFT (Homo sapiens, UniProt Q8TE23)", "False"],
  ["OC[C@H]1O[C@@H](O[C@H]2[C@H](O)[C@@H](O)C(O)O[C@@H]2CO)[C@H](O)[C@@H](O)[C@H]1O (mixture of isomers)", "hTAS1R2-VFT (Homo sapiens, UniProt Q8TE23)", "False"],
  ["OC[C@H]1O[C@@](CO)(O[C@H]2O[C@H](CO)[C@@H](O)[C@H](O)[C@H]2O)[C@@H](O)[C@@H]1O", "hTAS1R2-VFT (Homo sapiens, UniProt Q8TE23)", "False"],
  ["OC[C@H]1OC(O)[C@H](O)[C@@H](O)[C@@H]1O (some centres unmarked)", "hTAS1R2-VFT (Homo sapiens, UniProt Q8TE23)", "False"],
  ["OC[C@H]1O[C@H](O[C@]2(CCl)O[C@H](CCl)[C@@H](O)[C@@H]2O)[C@H](O)[C@@H](O)[C@H]1Cl", "hTAS1R2-VFT (Homo sapiens, UniProt Q8TE23)", "False"],
  ["COC(=O)[C@H](Cc1ccccc1)NC(=O)[C@H](CC(=O)O)NCCC(C)(C)C", "hTAS1R2-VFT (Homo sapiens, UniProt Q8TE23)", "True"]
]}

----------
system: human TAS1R2/TAS1R3 receptor (Homo sapiens, UniProt Q7RTX0+Q8TE23)
test-description: Cellular-based assay of the sweet taste receptor (EC50)
Format: cell-based

{"columns": ["molecule", "EC50"],
 "data": [
  ["O=C(CO)[C@@H](O)[C@H](O)[C@H](O)CO [Fructose]", "8 mM"]
]}

----------
system: human TAS1R2/TAS1R3 receptor (Homo sapiens, UniProt Q7RTX0+Q8TE23)
Sequence (Q8TE23 20-839): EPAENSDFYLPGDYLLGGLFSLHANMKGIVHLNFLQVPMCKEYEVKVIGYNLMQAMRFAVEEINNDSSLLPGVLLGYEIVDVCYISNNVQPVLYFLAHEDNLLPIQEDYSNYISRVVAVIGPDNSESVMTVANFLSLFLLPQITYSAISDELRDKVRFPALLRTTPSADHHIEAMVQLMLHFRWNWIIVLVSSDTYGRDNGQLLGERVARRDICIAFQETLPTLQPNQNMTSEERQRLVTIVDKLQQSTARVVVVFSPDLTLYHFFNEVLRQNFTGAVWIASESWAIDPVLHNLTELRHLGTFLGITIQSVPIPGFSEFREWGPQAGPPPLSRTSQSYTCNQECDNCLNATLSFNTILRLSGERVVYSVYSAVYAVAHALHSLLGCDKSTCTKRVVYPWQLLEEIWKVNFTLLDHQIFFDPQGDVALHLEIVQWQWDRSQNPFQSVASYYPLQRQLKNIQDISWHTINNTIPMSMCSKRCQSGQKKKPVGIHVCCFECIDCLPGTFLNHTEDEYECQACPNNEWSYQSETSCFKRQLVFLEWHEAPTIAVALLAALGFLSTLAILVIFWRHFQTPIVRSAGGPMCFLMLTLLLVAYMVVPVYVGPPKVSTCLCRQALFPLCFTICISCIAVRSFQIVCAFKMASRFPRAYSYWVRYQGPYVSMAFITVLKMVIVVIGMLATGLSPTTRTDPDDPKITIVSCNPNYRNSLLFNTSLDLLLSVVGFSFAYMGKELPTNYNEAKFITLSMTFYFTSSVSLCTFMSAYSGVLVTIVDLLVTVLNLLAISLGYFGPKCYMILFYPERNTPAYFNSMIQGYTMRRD
Sequence (Q7RTX0 21-852): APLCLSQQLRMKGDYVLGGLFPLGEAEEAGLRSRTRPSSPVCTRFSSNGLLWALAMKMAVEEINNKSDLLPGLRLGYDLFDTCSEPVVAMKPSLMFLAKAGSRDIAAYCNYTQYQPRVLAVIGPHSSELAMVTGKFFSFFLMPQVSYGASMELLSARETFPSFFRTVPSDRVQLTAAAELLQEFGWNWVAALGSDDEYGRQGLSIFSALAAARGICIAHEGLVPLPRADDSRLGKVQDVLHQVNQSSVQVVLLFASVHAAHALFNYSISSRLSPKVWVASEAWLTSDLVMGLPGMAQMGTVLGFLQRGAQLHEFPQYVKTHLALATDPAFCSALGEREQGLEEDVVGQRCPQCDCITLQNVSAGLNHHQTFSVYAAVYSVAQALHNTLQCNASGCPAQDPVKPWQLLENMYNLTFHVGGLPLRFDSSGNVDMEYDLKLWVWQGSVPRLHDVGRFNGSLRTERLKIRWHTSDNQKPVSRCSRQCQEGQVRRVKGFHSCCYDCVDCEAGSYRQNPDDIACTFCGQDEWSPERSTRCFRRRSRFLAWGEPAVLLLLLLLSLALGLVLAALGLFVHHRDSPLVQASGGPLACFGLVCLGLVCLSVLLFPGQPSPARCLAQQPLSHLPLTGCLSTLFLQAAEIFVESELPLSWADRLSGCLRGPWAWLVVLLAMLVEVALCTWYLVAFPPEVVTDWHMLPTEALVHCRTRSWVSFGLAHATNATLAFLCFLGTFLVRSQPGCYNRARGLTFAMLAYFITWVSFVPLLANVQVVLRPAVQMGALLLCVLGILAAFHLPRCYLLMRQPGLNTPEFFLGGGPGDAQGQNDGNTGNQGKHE
test-description: Cellular-based assay of the sweet taste receptor (EC50)
Assay type: cell-based
settings: cellular assays; unpublished data from our laboratory; read-out: EC50

{"columns": ["molecule-smiles", "EC50 (mM)"],
 "data": [
  ["OC[C@H]1O[C@@](CO)(O[C@H]2O[C@H](CO)[C@@H](O)[C@H](O)[C@H]2O)[C@@H](O)[C@@H]1O", 11]
]}
